Measured total protein half-life in vivo accompanies every entry in the list below.
assay: total protein half-life in vivo (active degradation + dilution); higher = more stable protein; settings: wild type E. coli NCM3722; growth: C-lim chemostat; doubling time 6 h

Prompt line: Give the measured total protein half-life in vivo of MKLVGSYTSPFVRKLSILLLEKGITFEFINELPYNADNGVAQFNPLGKVPVLVTEEGECWFDSPIIAEYIELMNVAPAMLPRDPLESLRVRKIEALADGIMDAGLVSVREQARPAAQQSEDELLRQREKINRSLDVLEGYLVDGTLKTDTVNLATIAIACAVGYLNFRRVAPGWCVDRPHLVKLVENLFSRESFARTEPPKA [P0ACA1] .
Response line: 5.52 h

Prompt line: Give the measured total protein half-life in vivo of MSRRAGTPTAKKVTQLVNVEEHVEGFRQVREAHRRELIDDYVELISDLIREVGEARQVDMAARLGVSQPTVAKMLKRLATMGLIEMIPWRGVFLTAEGEKLAQESRERHQIVENFLLVLGVSPEIARRDAEGMEHHVSEETLDAFRLFTQKHGAK [P0A9F1] .
Response line: 5.03 h
